Ref: ChEMBL document CHEMBL1150977

# pKd listing for each entry below
Biological target: Serine/threonine-protein kinase B-raf (Homo sapiens, UniProt P15056)
Sequence (P15056 whole entry): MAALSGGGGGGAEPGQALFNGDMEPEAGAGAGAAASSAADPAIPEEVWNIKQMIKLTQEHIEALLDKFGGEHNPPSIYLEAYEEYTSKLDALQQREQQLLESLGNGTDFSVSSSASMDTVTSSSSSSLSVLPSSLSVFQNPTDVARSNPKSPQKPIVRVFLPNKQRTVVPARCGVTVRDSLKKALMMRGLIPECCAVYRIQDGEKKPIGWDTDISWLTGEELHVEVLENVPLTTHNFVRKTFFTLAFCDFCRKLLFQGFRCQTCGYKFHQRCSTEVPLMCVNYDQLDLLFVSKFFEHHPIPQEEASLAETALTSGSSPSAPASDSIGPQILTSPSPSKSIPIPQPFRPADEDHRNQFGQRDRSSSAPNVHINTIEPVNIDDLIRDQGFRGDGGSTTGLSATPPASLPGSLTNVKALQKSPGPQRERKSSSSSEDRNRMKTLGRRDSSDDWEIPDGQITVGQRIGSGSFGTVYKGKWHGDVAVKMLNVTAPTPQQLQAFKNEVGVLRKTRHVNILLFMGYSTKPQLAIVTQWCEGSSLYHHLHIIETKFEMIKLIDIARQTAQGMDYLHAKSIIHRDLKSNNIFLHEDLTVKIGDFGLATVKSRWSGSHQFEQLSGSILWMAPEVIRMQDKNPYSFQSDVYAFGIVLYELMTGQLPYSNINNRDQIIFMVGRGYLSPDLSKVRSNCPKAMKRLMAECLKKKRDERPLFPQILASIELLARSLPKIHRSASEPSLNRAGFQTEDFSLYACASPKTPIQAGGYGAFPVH
pKd: −log10 of the molar value.

Nc1nc(Nc2ccc(S(N)(=O)=O)cc2)nn1C(=O)c1c(F)cccc1F [JNJ-7706621]	< 5.00
Oc1ccc(-c2nc(-c3ccncc3)c(-c3ccc(F)cc3)[nH]2)cc1 [SB-202190]	5.32

For the next question, use this compound.
Please look at this compound and report its pKd: CCOc1cc2ncc(C#N)c(Nc3ccc(F)c(Cl)c3)c2cc1NC(=O)/C=C/CN(C)C [PELITINIB]
< 5.00

----------
Biological target: Mitogen-activated protein kinase kinase kinase kinase 3 (Homo sapiens, UniProt Q8IVH8)
Sequence (Q8IVH8 whole entry): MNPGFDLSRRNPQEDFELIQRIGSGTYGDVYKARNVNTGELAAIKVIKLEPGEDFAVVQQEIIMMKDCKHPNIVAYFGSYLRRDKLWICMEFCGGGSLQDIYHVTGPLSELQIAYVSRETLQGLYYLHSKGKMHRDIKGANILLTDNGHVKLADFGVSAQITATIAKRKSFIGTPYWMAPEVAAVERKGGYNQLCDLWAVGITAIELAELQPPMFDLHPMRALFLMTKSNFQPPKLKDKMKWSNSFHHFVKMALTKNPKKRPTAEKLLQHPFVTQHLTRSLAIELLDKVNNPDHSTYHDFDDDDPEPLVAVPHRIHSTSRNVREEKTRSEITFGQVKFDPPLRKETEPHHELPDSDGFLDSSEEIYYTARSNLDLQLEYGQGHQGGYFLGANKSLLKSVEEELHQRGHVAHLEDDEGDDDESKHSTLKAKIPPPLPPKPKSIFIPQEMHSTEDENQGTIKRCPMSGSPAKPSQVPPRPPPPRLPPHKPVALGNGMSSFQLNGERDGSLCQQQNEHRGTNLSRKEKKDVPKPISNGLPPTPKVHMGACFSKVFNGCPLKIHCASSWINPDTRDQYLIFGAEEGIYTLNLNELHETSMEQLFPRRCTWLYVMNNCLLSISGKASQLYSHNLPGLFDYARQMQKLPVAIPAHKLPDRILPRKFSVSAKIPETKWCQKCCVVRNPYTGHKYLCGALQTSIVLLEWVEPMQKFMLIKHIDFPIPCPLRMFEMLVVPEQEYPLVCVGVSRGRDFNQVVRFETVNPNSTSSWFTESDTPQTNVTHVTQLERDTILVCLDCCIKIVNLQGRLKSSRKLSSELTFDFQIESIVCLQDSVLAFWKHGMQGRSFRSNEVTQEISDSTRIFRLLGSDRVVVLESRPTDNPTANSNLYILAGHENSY
Listing: Kd of selected molecules

NC(=O)c1ccc(-c2nc(-c3ccc4c(c3)OCO4)c(-c3ccccn3)[nH]2)cc1 [SB-431542]	> 10 µM
Oc1ccc(-c2nc(-c3ccncc3)c(-c3ccc(F)cc3)[nH]2)cc1 [SB-202190]	> 10 µM

Identify measured Kd associated with COCC(=O)NC/C=C/c1ccc2ncnc(Nc3ccc(Oc4ccc(C)nc4)c(C)c3)c2c1 [CP-724714]
> 10 µM
